Record form. Attribute: log2 fold change of degron read counts. Fill in for each entry.
- tgt: T1, CRBN, Q96SW2
- T1 chain: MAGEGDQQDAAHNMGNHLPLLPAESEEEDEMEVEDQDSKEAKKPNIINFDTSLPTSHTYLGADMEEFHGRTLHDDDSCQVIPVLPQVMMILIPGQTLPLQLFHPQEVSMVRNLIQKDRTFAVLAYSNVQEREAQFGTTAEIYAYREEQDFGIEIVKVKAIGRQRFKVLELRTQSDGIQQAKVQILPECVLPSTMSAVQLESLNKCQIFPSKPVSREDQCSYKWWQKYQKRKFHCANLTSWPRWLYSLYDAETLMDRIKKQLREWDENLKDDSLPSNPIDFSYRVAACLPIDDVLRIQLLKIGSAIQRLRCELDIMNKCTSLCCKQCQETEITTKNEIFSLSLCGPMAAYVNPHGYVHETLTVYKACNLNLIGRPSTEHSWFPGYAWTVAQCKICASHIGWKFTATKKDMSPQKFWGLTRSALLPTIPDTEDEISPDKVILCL
- test details: log2 fold change of degron read counts, EGFP-low vs EGFP+ sorted cells (limma voom), compound-induced degradation; higher = more compound-induced degradation of the degron-EGFP fusion; degrons are variants of IKZF1/3 zinc finger 2; compound dose not given here;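 also: pooled lentiviral library of zinc finger degron-EGFP fusions in mCherry-positive Jurkat cells, FACS-sorted after compound exposure, with degron abundance counted by next-generation sequencing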
- condition info: Jurkat; 18 h; compound: compound 22 (5-morpholino-thalidomide)
Whole data set: some 8,300 sequences, median “log2 fold change of degron read counts, EGFP-low vs EGFP+ sorted cells (limma voom), compound-induced degradation” near -1.1, cut for the highest 2% near 3.2. This is one part of a sample in which the highest values are shown more often than they occur.
Numbers only.

FECEQCGAPFTQKGNLLRHIKL [46F_47E_49E_50Q_52G_53A_54P_55F_67L_, Q9UKT9]: -3.27
FRCNICGAFFTQKGNLLRHIKL [46F_47R_49N_50I_52G_53A_54F_55F_67L_, Q9UKT9]: -1.67
FSCNICGATFTQKGNLLRHIKL [46F_47S_49N_50I_52G_53A_54T_55F_67L_, Q9UKT9]: 1.72
FWCEICGRSFTQKGNLLRHIKL [46F_47W_49E_50I_52G_53R_54S_55F_67L_, Q9UKT9]: 1.06
FRCPICGAVFTQKGNLLRHIKL [46F_47R_49P_50I_52G_53A_54V_55F_67L_, Q9UKT9]: -0.551
FICPICGHQFTQKGNLLRHIKL [46F_47I_49P_50I_52G_53H_54Q_55F_67L_, Q9UKT9]: -2.12

Okay, next one:
Task: For the sequence LGCEICGFCCTQKGNLLRHIKL [46L_47G_49E_50I_52G_53F_54C_55C_67L_, Q9UKT9] , give its measured log2 fold change of degron read counts value.
Result: -0.36
